biological target: 5-HT Transporter (SERT) Sites in Mouse Brain (Mus musculus); construct: Whole brains were removed and cortex and striata dissected out; from tissue; host or cells: C57BL/6 mouse frontal cortex homogenate; assay: Ex vivo [3H] citalopram binding after oral dosing; parameters: species or system C57BL/6 mice; settings: 1 mg/kg, mice sacrificed 60 minutes after treatment, cortex
Sequence (Q60857 whole entry): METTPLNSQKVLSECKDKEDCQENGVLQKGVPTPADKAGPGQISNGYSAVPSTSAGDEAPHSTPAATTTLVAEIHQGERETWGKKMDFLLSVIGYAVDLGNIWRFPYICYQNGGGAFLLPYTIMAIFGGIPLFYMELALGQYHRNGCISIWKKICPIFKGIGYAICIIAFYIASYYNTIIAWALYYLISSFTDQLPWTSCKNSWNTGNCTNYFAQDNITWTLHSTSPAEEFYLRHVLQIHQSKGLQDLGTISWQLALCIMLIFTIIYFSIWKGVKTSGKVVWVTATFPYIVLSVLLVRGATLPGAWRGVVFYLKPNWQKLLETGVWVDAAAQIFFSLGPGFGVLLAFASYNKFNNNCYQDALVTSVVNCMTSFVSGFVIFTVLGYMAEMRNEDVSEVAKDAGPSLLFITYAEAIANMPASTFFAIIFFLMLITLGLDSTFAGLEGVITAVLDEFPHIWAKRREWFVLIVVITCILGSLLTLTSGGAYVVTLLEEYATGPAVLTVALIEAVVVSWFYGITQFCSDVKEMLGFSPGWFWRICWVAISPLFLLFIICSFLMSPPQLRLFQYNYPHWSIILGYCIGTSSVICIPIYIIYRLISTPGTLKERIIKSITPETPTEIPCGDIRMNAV
Given measured Mean Specific Binding (dpm) ± S.E.M., SERT, output true (1) if it is greater than or equal to 3000 dpm and false (0) if not.

Look over these answered cases.
MOLECULE: CC(N(C)C)C1(c2ccc3ccccc3c2)CCCCC1 (single isomer, unassigned) [56 E1]
EXPERIMENTAL_SYSTEM: 5-HT Transporter (SERT) Sites in Mouse Brain (Mus musculus)
LABEL_CLASS: false (0)
--
MOLECULE: CNCC1(c2ccc(Cl)c(Cl)c2)CCC(C)(O)CC1 (centres unmarked) [Compound 276]
EXPERIMENTAL_SYSTEM: 5-HT Transporter (SERT) Sites in Mouse Brain (Mus musculus)
LABEL_CLASS: true (1)
--
MOLECULE: CN(C)CC1(c2ccc(Cl)c(Cl)c2)CCC(C)(O)CC1 (centres unmarked) [Compound 277]
EXPERIMENTAL_SYSTEM: 5-HT Transporter (SERT) Sites in Mouse Brain (Mus musculus)
LABEL_CLASS: false (0)
--
MOLECULE: CNC(C)C1(c2ccc3ccccc3c2)CCCCC1 (single isomer, unassigned) [58 E1]
EXPERIMENTAL_SYSTEM: 5-HT Transporter (SERT) Sites in Mouse Brain (Mus musculus)
LABEL_CLASS: true (1)

Query block: Reported Mean Specific Binding (dpm) ± S.E.M., SERT reaches at least 3000 dpm for CN(C)C[C@]1(c2ccc3ccccc3c2)CC[C@](C)(O)CC1 [Compound 225] ?
Result block: true (1)

====

Form field: IC50 (one value per entry).
biological target: serotonin transporter (Rattus norvegicus, UniProt P31652); construct: synaptosomes isolated in a 0.32M sucrose buffer from a male Wistar rat cortex; from tissue; host or cells: male Wistar rat cortex synaptosomes; experiment: biochemical; conditions: rat synaptosomes, serotonin transporter (SERT); read-out: Rat IC50 (nM) rSERT
Sequence (P31652 whole entry): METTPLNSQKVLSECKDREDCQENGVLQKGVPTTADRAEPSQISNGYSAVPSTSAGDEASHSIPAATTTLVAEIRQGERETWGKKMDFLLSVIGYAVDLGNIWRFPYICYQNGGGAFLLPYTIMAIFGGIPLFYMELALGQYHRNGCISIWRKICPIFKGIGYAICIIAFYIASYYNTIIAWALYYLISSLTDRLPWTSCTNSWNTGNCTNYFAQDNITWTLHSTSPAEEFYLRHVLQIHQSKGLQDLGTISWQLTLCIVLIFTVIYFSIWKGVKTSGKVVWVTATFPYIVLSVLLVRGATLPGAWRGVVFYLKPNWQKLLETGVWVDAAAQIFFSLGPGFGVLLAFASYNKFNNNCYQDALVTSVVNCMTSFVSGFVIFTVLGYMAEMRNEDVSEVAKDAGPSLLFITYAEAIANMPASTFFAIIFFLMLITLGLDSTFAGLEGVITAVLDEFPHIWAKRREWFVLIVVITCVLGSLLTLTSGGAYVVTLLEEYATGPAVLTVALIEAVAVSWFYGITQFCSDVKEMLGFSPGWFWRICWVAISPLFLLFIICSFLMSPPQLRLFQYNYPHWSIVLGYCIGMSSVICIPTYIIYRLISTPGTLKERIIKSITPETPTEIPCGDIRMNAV
Only the number, expressed in nM, is required.

MOLECULE: COC1CCC(CN(C)C)(c2ccc(Cl)c(Cl)c2)CC1 (centres unmarked)
MEASURE_UNIT: nM
IC50: 280

Now consider the entry below.
Query block: I am curious: what IC50 value has been reported for NCC1(c2cccc3ccccc23)CCCCC1 ?
Result block: 1100

====

target: human dopamine reuptake transporter (Homo sapiens); construct: expressed in transfected cells; host or cells: CHO-K1 or HEK293; experiment: cell-based; details: recombinant human dopamine transporter (DAT); read-out: Human IC50 (nM) hDAT
Sequence (Q01959 whole entry): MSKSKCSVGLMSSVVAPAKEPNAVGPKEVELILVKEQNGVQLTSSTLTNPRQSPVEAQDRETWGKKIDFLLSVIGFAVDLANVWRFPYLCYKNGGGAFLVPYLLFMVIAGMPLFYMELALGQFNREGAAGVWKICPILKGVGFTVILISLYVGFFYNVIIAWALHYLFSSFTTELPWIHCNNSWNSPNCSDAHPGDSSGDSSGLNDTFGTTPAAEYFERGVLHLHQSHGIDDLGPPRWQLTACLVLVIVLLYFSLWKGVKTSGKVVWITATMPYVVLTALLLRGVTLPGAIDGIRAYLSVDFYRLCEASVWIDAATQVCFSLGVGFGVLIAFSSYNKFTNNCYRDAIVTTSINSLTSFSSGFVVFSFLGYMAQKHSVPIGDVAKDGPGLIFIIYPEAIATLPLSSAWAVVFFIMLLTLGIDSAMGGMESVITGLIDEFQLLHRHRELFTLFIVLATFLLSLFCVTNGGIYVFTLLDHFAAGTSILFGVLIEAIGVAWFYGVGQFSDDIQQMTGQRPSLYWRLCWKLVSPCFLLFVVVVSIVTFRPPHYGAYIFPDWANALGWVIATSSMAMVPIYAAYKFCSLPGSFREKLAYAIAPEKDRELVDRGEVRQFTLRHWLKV
Form field: IC50 (one value per entry).
Only the number, expressed in nM, is required.

Reference set, count: 5
COMPOUND: COC1CCC(CN)(c2ccc(Cl)c(Cl)c2)CC1 (stereo not shown) [Compound 255]
RESULT_VALUE: 170
//
COMPOUND: CNC(C)C1(c2cccc3ccccc23)CCCCC1 (single isomer, unassigned) [59 E2]
RESULT_VALUE: 3870
//
COMPOUND: NCC1(c2ccc(Cl)c(Cl)c2)CCC(F)CC1 (stereo not shown) [Compound 260]
RESULT_VALUE: 306
//
COMPOUND: CN(C)CC1(c2ccc3ccccc3c2)CCC(Cl)CC1 (stereo not shown)
RESULT_VALUE: 11
//
COMPOUND: CNC(=O)[C@]1(c2ccc3ccccc3c2)CCCC[C@H]1O (relative stereo)
RESULT_VALUE: 8780

Query block: I am curious: what IC50 value has been reported for CCC1(O)CCC(CN)(c2ccc(Cl)c(Cl)c2)CC1 (stereo not shown) [Compound 281] ?
Result block: 384

Query block: Subsequent entry: CC1(O)CCC(CN)(c2ccc3ccccc3c2)CC1 (stereo not shown)
Result block: 4760

Query block: Subsequent entry: CNCC1(c2ccc(F)c3ccccc23)CCCCC1
Result block: 605

Query block: Subsequent entry: CCCC1(O)CCC(CNC)(c2ccc(Cl)c(Cl)c2)CC1 (stereo not shown)
Result block: 1900

====

biological target: serotonin transporter (Rattus norvegicus, UniProt P31652); construct: synaptosomes isolated in a 0.32M sucrose buffer from a male Wistar rat cortex; from tissue; host or cells: male Wistar rat cortex synaptosomes; test: biochemical; conditions: Rat IC50 (nM) rSERT, rat synaptosomes, serotonin transporter (SERT)
Rule: IC50 below 100 nM gives Y. Equal to or above 100 nM gives N.

Look over these answered cases.
COMPOUND: CNC(C)C1(c2ccc3ccccc3c2)CCCCC1 (single isomer, unassigned) [58 E1]
EXPERIMENTAL_SYSTEM: serotonin transporter (Rattus norvegicus, UniProt P31652)
LABEL_CLASS: Y
--
COMPOUND: CC(N(C)C)C1(c2ccc3ccccc3c2)CCCCC1 (single isomer, unassigned) [56 E1]
EXPERIMENTAL_SYSTEM: serotonin transporter (Rattus norvegicus, UniProt P31652)
LABEL_CLASS: Y

Query block: Consider the compound CN(C)CC1(c2ccc(Cl)c(Cl)c2)CCC(C)(O)CC1 (centres unmarked) . Is its IC50 strictly less than 100 nM?
Result block: Y

Query block: Subsequent entry: CC(N(C)C)C1(c2ccc3ccccc3c2)CCCCC1 (single isomer, unassigned) [56 E2]
Result block: N

====

Form field: IC50 (one value per entry).
target: dopamine transporter (Rattus norvegicus, UniProt P23977); construct: synaptosomes isolated in a 0.32 M sucrose buffer from a male Wistar rat striatum; from tissue; host or cells: male Wistar rat striatum synaptosomes; assay: biochemical; details: Rat IC50 (nM) rDAT, rat synaptosomes, dopamine transporter (DAT)
Sequence (P23977 whole entry): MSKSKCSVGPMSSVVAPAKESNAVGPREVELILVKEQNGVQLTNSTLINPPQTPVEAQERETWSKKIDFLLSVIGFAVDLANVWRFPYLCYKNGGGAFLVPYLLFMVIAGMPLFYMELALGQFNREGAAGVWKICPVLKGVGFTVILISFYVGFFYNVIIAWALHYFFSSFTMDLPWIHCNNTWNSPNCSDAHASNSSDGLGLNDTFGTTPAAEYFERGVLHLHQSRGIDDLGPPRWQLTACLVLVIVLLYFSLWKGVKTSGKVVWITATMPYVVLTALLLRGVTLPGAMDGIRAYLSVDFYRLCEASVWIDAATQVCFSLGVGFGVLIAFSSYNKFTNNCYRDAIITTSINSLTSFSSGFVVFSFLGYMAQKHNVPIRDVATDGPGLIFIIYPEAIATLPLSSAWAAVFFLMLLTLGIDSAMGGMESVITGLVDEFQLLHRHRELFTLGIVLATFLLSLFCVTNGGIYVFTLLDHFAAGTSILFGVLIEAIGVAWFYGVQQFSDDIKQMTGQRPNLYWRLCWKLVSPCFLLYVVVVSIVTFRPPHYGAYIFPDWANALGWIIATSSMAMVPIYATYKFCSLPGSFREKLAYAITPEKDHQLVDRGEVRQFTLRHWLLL
Only the number, expressed in nM, is required.

Reference set, count: 4
MOLECULE: CN(C)CC1(c2ccc(Cl)c(Cl)c2)CCC(F)CC1 (centres unmarked)
IC50 / nM: 100
//
MOLECULE: CC(N(C)C)C1(c2ccc3ccccc3c2)CCCCC1 (single isomer, unassigned) [56 E1]
IC50 / nM: 24
//
MOLECULE: CNCC1(c2ccc(Cl)c(Cl)c2)CCCCC1.Cl [Compound 75, (hydrochloride)]
IC50 / nM: 58
//
MOLECULE: CN(C)CC1(c2ccc(Cl)c(Cl)c2)CCC(C)(O)CC1 (centres unmarked)
IC50 / nM: 43

Now consider the entry below.
Query block: I am curious: what IC50 value has been reported for CC(N(C)C)C1(c2ccc3ccccc3c2)CCCCC1 (single isomer, unassigned) [56 E2] ?
Result block: 100

====

target: human dopamine reuptake transporter (Homo sapiens); construct: expressed in transfected cells; host or cells: CHO-K1 or HEK293; assay: cell-based; conditions: recombinant human dopamine transporter (DAT); read-out: Human IC50 (nM) hDAT
Counter-ions that a name gives are not always drawn.
Rule: IC50 below 700 nM gives criterion met. Equal to or above 700 nM gives criterion not met.

Look over these answered cases.
COMPOUND: CNCC1(c2ccc(Cl)c(Cl)c2)CCC(OC)CC1 (stereo not drawn) [Compound 259]
LABEL_CLASS: criterion met
//
COMPOUND: OC1CCCCC1NCC1(c2ccc(Cl)c(Cl)c2)CCCCC1 (racemic) [Compound 117]
LABEL_CLASS: criterion met
//
COMPOUND: NCC1(c2ccc(Cl)cc2)CCCCC1 [Compound 29, hydrochloride]
LABEL_CLASS: criterion met
//
COMPOUND: CN(C)CC1(c2ccc3c(c2)OCO3)CCC(C)(O)CC1 (stereo not drawn) [Compound 242]
LABEL_CLASS: criterion not met
//
COMPOUND: CN(C)CC1(c2ccc3ccccc3c2)CCC(O)(CF)CC1 (stereo not drawn) [Compound 246]
LABEL_CLASS: criterion met

Now take the following compound into account.
Query block: Consider the compound CNCC1(c2ccc(OC)cc2)CCCCC1O (single isomer, unassigned) [139 E1] . Is its IC50 strictly less than 700 nM?
Result block: criterion not met

====

Form field: % Transporter Occupancy, DAT (one value per entry).
target: DA Transporter (DAT) Sites in Mouse Brain (Mus musculus, UniProt Q61327); construct: Striatum was used to determine occupancy of DA transporter sites; from tissue; host or cells: C57BL/6 mouse striatum homogenate; assay: Ex vivo [3H] WIN 35428 binding after oral dosing; design: species or system C57BL/6 mice; details: 3 mg/kg, 60 minutes after treatment, vs vehicle
Sequence (Q61327 whole entry): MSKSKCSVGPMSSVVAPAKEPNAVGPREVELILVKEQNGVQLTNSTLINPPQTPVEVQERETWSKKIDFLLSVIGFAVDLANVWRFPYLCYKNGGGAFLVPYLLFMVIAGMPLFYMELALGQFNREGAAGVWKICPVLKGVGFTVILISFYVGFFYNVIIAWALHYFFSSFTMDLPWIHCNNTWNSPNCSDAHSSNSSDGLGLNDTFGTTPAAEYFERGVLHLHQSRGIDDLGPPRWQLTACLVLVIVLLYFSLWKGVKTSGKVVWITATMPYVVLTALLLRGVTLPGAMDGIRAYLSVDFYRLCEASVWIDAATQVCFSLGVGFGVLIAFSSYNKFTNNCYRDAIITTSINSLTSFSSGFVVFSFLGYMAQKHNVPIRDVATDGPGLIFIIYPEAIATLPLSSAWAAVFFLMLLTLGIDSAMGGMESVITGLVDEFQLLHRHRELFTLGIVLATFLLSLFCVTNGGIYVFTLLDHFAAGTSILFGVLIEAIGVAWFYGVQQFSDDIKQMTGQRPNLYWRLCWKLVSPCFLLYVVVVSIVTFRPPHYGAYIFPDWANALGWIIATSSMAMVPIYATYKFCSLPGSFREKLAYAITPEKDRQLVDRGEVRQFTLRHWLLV
Only the number, expressed in %, is required.

COMPOUND: CC(N(C)C)C1(c2ccc3ccccc3c2)CCCCC1 (single isomer, unassigned) [56 E1]
% Transporter Occupancy, DAT [%]: 4
--
COMPOUND: CN(C)C[C@]1(c2ccc3ccccc3c2)CC[C@](C)(O)CC1 [Compound 225]
% Transporter Occupancy, DAT [%]: -6
--
COMPOUND: CN(C)CC1(c2ccc(Cl)c(Cl)c2)CCC(C)(O)CC1 (centres unmarked) [Compound 277]
% Transporter Occupancy, DAT [%]: 21
--
COMPOUND: CNC(C)C1(c2ccc3ccccc3c2)CCCCC1 (single isomer, unassigned) [58 E1]
% Transporter Occupancy, DAT [%]: 11

Now consider the entry below.
Query block: I am curious: what % Transporter Occupancy, DAT value has been reported for CNCC1(c2ccc(Cl)c(Cl)c2)CCC(C)(O)CC1 (centres unmarked) [Compound 276] ?
Result block: -9

// provenance: patent EP1976513B1
